The origin of these recorded values is the supplement of paper PMC6555819.

System: PXR homodimer (NR concentration 270 nM)
Method description: PBM binding z-score (relative to random genomic background probes); higher = stronger binding; sequences stand for … in GC…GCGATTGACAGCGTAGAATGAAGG
Tick yes if PBM binding z-score is -0.1 or greater. Tick no if PBM binding z-score is less than -0.1.

## Input Quick check: does `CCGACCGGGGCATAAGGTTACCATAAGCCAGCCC` have PBM binding z-score greater than or equal to -0.1?
## Output yes

## Input Please check the record `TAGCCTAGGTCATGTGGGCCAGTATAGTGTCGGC` and state if its PBM binding z-score is at or above -0.1.
## Output no

## Input Item `GCTCGGAGGACAAGGTCAGAGCGTTGTCCGTAGA` with PBM binding z-score of -0.1 or above?
## Output no

## Input Reported PBM binding z-score at or above -0.1? `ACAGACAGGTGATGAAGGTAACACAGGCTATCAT`
## Output yes

## Input Check this sequence for PBM binding z-score at or above -0.1: `CAAACTAGGTCAAAGGTAAAAGTCGAGCCAACCA`
## Output no

## Input Quick check, PBM binding z-score >= -0.1? `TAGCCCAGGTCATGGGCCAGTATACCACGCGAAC`
## Output no

## Input Does PBM binding z-score meet or surpass -0.1 for `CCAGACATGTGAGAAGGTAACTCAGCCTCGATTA` ?
## Output yes

## Input Is PBM binding z-score for `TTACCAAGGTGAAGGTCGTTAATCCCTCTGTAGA` at or above -0.1?
## Output yes

## Input Is PBM binding z-score at least -0.1? Consider `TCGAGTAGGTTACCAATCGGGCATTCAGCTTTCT`
## Output no

## Input # check: PBM binding z-score of `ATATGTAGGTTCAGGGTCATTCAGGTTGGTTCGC` is greater than or equal to -0.1
## Output yes

## Input Entry `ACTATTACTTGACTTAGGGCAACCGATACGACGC` : is its PBM binding z-score no less than -0.1?
## Output yes

## Input Reported PBM binding z-score at or above -0.1? `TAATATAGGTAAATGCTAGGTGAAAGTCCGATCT`
## Output yes

## Input Has `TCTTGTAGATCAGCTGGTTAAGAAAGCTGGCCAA` a recorded PBM binding z-score greater than or equal to -0.1?
## Output no

## Input Check this sequence for PBM binding z-score at or above -0.1: `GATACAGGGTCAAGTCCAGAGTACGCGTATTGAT`
## Output yes

## Input Given `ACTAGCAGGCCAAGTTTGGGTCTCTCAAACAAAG` , state whether its PBM binding z-score is at least -0.1.
## Output no

## Input Answer whether PBM binding z-score of `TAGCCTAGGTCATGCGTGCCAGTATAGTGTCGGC` is greater than or equal to -0.1.
## Output no

## Input Test whether the sequence `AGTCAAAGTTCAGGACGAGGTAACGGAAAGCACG` records PBM binding z-score of -0.1 or higher.
## Output yes

## Input Please indicate if the recorded PBM binding z-score for `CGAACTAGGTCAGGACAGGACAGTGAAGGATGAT` meets or exceeds -0.1.
## Output no

## Input Textbook exercise: given the entry `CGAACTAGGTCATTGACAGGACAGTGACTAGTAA` , state whether its PBM binding z-score is greater than or equal to -0.1.
## Output yes

## Input Reported PBM binding z-score at or above -0.1? `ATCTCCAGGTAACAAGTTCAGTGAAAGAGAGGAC`
## Output yes

## Input Does `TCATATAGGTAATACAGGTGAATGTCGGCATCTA` have a reported PBM binding z-score of at least -0.1?
## Output yes

## Input Tell me whether PBM binding z-score is at least -0.1 here: `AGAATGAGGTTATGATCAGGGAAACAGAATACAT`
## Output yes

## Input Assess whether reported PBM binding z-score for `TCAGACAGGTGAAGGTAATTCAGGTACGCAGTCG` sits at -0.1 or higher.
## Output yes

## Input Say whether `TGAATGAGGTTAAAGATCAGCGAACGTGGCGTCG` shows PBM binding z-score of -0.1 or more.
## Output yes

## Input Quick check, PBM binding z-score >= -0.1? `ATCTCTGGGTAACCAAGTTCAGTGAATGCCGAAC`
## Output yes

## Input Decide: is the reported value of PBM binding z-score for `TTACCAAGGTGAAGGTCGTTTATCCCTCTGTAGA` equal to or greater than -0.1?
## Output yes

## Input Could you please find out whether `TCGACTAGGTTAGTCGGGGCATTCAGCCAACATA` has PBM binding z-score that meets -0.1 or exceeds it?
## Output no

## Input Decide: is the reported value of PBM binding z-score for `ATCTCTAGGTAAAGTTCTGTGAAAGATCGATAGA` equal to or greater than -0.1?
## Output yes

## Input # bool: PBM binding z-score of `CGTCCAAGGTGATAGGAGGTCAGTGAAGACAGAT` >= -0.1
## Output yes

## Input State whether the measured PBM binding z-score reaches -0.1, counting equality as reaching it, for `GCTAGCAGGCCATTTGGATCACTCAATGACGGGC`
## Output no

## Input For this sequence, is measured PBM binding z-score -0.1 or higher? `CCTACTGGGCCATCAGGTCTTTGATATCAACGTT`
## Output no

## Input Exam item: decide whether the reported PBM binding z-score for `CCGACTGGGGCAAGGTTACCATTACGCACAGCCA` is at least -0.1.
## Output no

## Input Please indicate if the recorded PBM binding z-score for `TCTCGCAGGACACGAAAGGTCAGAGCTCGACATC` meets or exceeds -0.1.
## Output yes

## Input State whether the measured PBM binding z-score reaches -0.1, counting equality as reaching it, for `CTCGAAGGGTCGGTTGAGGTGAGTATACGGATAA`
## Output yes

## Input Threshold query (PBM binding z-score >= -0.1) on `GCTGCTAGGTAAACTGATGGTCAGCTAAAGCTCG`
## Output no

## Input Determine whether this sequence has PBM binding z-score no lower than -0.1: `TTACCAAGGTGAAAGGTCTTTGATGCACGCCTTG`
## Output no

## Input Form field: PBM binding z-score at least -0.1? Entry: `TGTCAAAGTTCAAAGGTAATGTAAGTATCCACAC`
## Output yes

## Input Hi team, for `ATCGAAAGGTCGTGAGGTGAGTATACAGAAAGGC` , is the recorded PBM binding z-score at or above -0.1?
## Output yes

## Input Is reported PBM binding z-score greater than or equal to -0.1 here: `GCAGACAGGTCAAACGCAGGTAACTCAGGGTGGC`
## Output no

## Input Is reported PBM binding z-score greater than or equal to -0.1 here: `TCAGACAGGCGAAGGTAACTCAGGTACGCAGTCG`
## Output no

## Input Decide: PBM binding z-score of `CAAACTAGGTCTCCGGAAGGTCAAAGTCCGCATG` >= -0.1?
## Output yes

## Input Given the entry `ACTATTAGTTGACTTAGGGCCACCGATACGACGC` , answer whether its PBM binding z-score meets or surpasses -0.1.
## Output yes

## Input Dear colleague, could you confirm whether `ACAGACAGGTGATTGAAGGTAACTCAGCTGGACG` has PBM binding z-score at or above -0.1?
## Output no

## Input Hi, just wondering whether `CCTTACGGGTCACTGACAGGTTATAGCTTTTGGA` shows PBM binding z-score of -0.1 or higher.
## Output no

## Input Hello, I need to know if `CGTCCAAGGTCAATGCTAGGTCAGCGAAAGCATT` has measured PBM binding z-score not below -0.1. Thanks!
## Output yes

## Input Quick check, PBM binding z-score >= -0.1? `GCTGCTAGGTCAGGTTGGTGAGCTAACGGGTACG`
## Output no

## Input Does the reported PBM binding z-score for `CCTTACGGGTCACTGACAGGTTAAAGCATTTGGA` fall at or above the -0.1 mark?
## Output yes

## Input Could you verify whether the entry `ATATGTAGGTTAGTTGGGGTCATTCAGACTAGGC` shows PBM binding z-score of no less than -0.1?
## Output yes

## Input Please check the record `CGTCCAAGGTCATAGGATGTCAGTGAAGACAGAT` and state if its PBM binding z-score is at or above -0.1.
## Output yes

## Input Is it the case that `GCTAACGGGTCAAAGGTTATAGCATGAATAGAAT` has PBM binding z-score reaching or exceeding -0.1?
## Output yes
